test: Measurement of lipophilicity (LogP): octanol-water partition coefficient of the 99mTc complexes; assay type: physicochemical; conditions: 99mTc complex of the compound; 1-octanol / 50 mM phosphate buffer pH 7.4, room temperature
MEASURED_ENDPOINT: Log P (octanol/50 mM phosphate buffer)
Number only, please.

CCCCc1nc(Cl)c(CNC(=O)C(CC(C)C)NC(=O)COCC(=O)NCCOCCOCCOCCNC(=O)CC(CNCCN)CNCCN)n1Cc1ccc(-c2ccccc2-c2nn[nH]n2)cc1 (centres unmarked) (99mTc complex, metal not drawn) ... −0.1

Could you share which Log P (octanol/50 mM phosphate buffer) value was measured for "NCCNCC(CCCCCCNC(=O)c1ccccc1)CNCCN" ?
−1.8
